Target Entity: Clostridium difficile toxin B (whole toxin B) (Clostridium difficile)
Assay Text: cell-based or functional assay
Property Name: Mean EC50, neutralization of TcdB on HT-29 cells (xCELLigence) (µg/mL)
Give the number; µg/mL is assumed, so skip it.

Worked cases, Mean EC50, neutralization of TcdB on HT-29 cells (xCELLigence) given:
CAN46G24 (antibody, V domains shown, also called CAN46G24-2-3; murine CAN46G24) VH: EVQLLQSGPELVKPGTSVKISCKASGYSFTGYYIHWVKQTHVKSLEWVGRIFPYNGAASYNQNFKGKATLTVDKSSSTAYMELHSLTSEDSAVYFCARWLRVYFDYWGQGTTLTVSS VL: EIVLTQSPAIMSTSPGEKVTMSCSASSSVTYMHWYQQKSITSPKLWIYETSKLASGVPGRFSGSGSGNSYSLTISSMEAEDVATYYCFQGSGYPFTFGSGTKLEIK    44.2
CAN46G4 (antibody, V domains shown, also called CAN46G4-1-2; murine CAN46G4) VH: EVQLLQSGPELVKPGASVKISCKASDYSFTGYYMHWVKQSHVKSLEWIGRIFPYNGAASYNQNFKDKATLTVDKSSSTAYMELHSLTSEDSAVYYCTRWLRVYFDYWGQGTTLTVSS VL: EKVLTQSPAIMSASPGEEVTMTCSASSSVSYMHWYQQKSSTSPKLWIYETSKLAFGVPGRFSGSGSGNSYSLTISSMEAEDVATYYCFQGSGYPFTFGSGTKLEVK    142
CAN46G13 (antibody, V domains shown, also called CAN46G13-1-5; murine CAN46G13) VH: EVQLLQSGPELVKPGTSVKISCKASGYSFTGYYIHWVKQTHVKSLEWVGRIFPYNGAASYNQNFKGKATLTVDKSSSTAYMELHSLTSEDSAVYFCARWLRVYFDYWGQGTTLTVSS VL: EIVLTQSPAIMSTSPGEKVTMSCSASSSVTYMHWYQQKSITSPKLWIYETSKLASGVPGRFSGSGSGNSYSLTISSMEAEDVATYYCFQGSGYPFTFGSGTKLEIK    136

--- query ---
QUERY: Which Mean EC50, neutralization of TcdB on HT-29 cells (xCELLigence) reading was recorded for the binder CAN46G19 (antibody, V domains shown, also called CAN46G19-3-2; murine CAN46G19) VH: EVQLLQSGPELVKPGTSVKISCKASGYSFTGYYIHWVKQTHVKSLEWVGRIFPYNGAASYNQNFKGKATLTVDKSSTTAYMELHSLTSEDSAVYFCARWLRVYFDYWGQGTTLTVSS VL: ENVLTQSPTIMSASPGEEVTMTCSASSSVTYMHWYQQKSITSPKLWIYETSKLASGVPGRFSGSGSGNSYSLTISSMEAEDVATYYCFQGSGYPFTFGSGTKLEIK ?
RESULT: 142
